PROCEDURE SUMMARY: in vitro
CONDITIONS USED: Landrace, pig, brain homogenate, pH 7.4
MEASUREMENT TYPE: fraction unbound at 5 h, 1 μg/g
Respond numerically, and do not add a unit to the figure.

Query block: Using the record for CC[C@@H](C)N(C)C(=O)c1cc2ccccc2c(-c2ccccc2Cl)n1 [^11C-(R)-PK11195] , report its fraction unbound at 5 h, 1 μg/g.
Result block: 0.01

====

PROCEDURE SUMMARY: in vitro
CONDITIONS USED: Landrace, pig, plasma, pH 7.4
MEASUREMENT TYPE: fraction unbound at 5 h, 1 μg/g
Respond numerically, and do not add a unit to the figure.

Query block: Using the record for CC[C@@H](C)N(C)C(=O)c1cc2ccccc2c(-c2ccccc2Cl)n1 [^11C-(R)-PK11195] , report its fraction unbound at 5 h, 1 μg/g.
Result block: 0.14

Value source: paper PMC3314937
